These measurements were taken from ChEMBL document CHEMBL1770088.

biological target: Calcitonin gene-related peptide type 1 receptor (Homo sapiens, UniProt O60894+Q16602); experiment: Antagonist activity at CGRP receptor assessed as inhibition of CGRP-stimulated cAMP production by cell based assay in presence of 50% human serum; type: functional
Sequence (Q16602 whole entry, one chain of several): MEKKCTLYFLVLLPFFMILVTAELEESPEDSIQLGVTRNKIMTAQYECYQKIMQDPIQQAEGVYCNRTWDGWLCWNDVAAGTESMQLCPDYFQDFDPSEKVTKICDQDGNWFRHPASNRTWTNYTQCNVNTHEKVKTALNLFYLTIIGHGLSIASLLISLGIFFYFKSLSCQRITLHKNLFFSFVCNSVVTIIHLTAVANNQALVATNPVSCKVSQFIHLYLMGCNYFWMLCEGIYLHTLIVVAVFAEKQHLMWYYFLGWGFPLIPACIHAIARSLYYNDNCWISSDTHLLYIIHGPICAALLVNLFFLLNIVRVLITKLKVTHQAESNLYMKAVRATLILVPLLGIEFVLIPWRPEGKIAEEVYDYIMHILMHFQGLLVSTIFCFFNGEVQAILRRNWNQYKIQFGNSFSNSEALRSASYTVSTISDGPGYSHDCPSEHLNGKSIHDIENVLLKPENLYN
quantity.measured: IC50
Please provide the amount together with its unit, number first.

>>> print(df.to_string())
                                   compound                                 tested_on  reading
0  O=C1Nc2ncccc2C2(CCN(C(=O)N[C@@H]3CC[C@@H](c4cccc(F)c4F)Cn4c(CC(F)(F)F)nnc43)CC2)O1  Calcitonin gene-related peptide type 1 receptor (Homo sapiens, UniProt O60894+Q16602)   1.3 nM
1  COC(C)(C)c1cnc2n1C[C@H](c1cccc(F)c1F)CC[C@H]2NC(=O)N1CCC(n2c(=O)[nH]c3ncccc32)CC1  Calcitonin gene-related peptide type 1 receptor (Homo sapiens, UniProt O60894+Q16602)  0.61 nM
2  Cc1cn2c(n1)[C@H](NC(=O)N1CCC(n3c(=O)[nH]c4ncccc43)CC1)CC[C@@H](c1cccc(F)c1F)C2  Calcitonin gene-related peptide type 1 receptor (Homo sapiens, UniProt O60894+Q16602)    28 nM

INPUT: Bench note: what IC50 did CC1(c2cnc3n2C[C@H](c2cccc(F)c2F)CC[C@H]3NC(=O)N2CCC3(CC2)OC(=O)Nc2ncccc23)CCCO1 (stereo not given in full) show?
OUTPUT: 0.76 nM

INPUT: Any idea what IC50 was measured for COCc1cnc2n1C[C@H](c1cccc(F)c1F)CC[C@H]2NC(=O)N1CCC2(CC1)C(=O)Nc1ncccc12 ?
OUTPUT: 4.3 nM

INPUT: Query (compound): COCc1cnc2n1C[C@H](c1cccc(F)c1F)CC[C@H]2NC(=O)N1CCC2(CC1)OC(=O)Nc1ncccc12 ; field requested: IC50
OUTPUT: 1.7 nM

INPUT: Please give the measured IC50 for this compound: Cc1cnc2n1C[C@H](c1cccc(F)c1F)CC[C@H]2NC(=O)N1CCC(n2c(=O)[nH]c3ncccc32)CC1
OUTPUT: 12 nM

INPUT: Can you look up the measured IC50 of O=C(N[C@@H]1CC[C@@H](c2cccc(F)c2F)Cn2c(-c3nccs3)cnc21)N1CCC(n2c(=O)[nH]c3ncccc32)CC1 for me?
OUTPUT: 64 nM

INPUT: I'd like to know its IC50. The compound in question is O=C(N[C@@H]1CC[C@@H](c2cccc(F)c2F)Cn2c(CC(F)(F)F)cnc21)N1CCC2(CC1)C(=O)Nc1ncccc12
OUTPUT: 4 nM

INPUT: Name the reported IC50 value associated with the compound O=C(N[C@@H]1CC[C@@H](c2cccc(F)c2F)Cn2c(C3CC3)nnc21)N1CCC(n2c(=O)[nH]c3ncccc32)CC1
OUTPUT: 2.4 nM
